src = the supplement of paper PMC6757056

FACS-Seq fitted mean (log10) listing for selected variants.
B1: library; a variant is named by its letters at N, in order (parent)
chain: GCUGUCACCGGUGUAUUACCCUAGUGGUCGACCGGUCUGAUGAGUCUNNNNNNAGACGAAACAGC

- Variants of: B1
- experimental_details: FACS-Seq fitted mean relative fluorescence mCherry/BFP with ligand (log10 relative fluorescence); ligand: hypoxanthine (xanthine aptamer); ligand concentration (+) FACS-Seq: 5 mM; higher = higher reporter protein expression
- condition_label: HEK293T, ligand present: yes
Hey, just send me the number, nothing else.

Recorded results for 10 variants are shown here.
CGCGCC 0.445
AAGCAA 0.591
GAUUGG 0.393
AGUGGA 0.468
ACGUUG 0.488
CACGCU 0.774
AGUAAA 0.59
GAGUGU 0.69
GCACAG 0.0639
UCAAAU 0.54

# evaluate next
// FACS-Seq fitted mean (log10) value for AAUUCG : 0.729
